# System name: Epidermal growth factor receptor (Homo sapiens)
Measurement type: IC50

>>> value_measured("CN(C)C(=O)N1CCC(c2nc(-c3cc4ccccc4[nH]3)c3c(N)nccn23)CC1")
"> 10 µM"

---

# Assay info: AUC (0 to infinity) in mouse at 1 mg/kg, iv
# Type: ADME, organism-based
# Parameters: time infinity, dose 1 mg/kg, route intravenous
# Condition parameters: plasma
Measurement type: AUC(0-inf) (ng·h/mL)

>>> value_measured("CC(=O)NC[C@H]1CC[C@H](c2nc(-c3cc4ccccc4[nH]3)c3c(N)nccn32)CC1")
6880

---

# System name: Insulin-like growth factor 1 receptor (Homo sapiens)
# Sequence (P08069 31-736 limits assumed): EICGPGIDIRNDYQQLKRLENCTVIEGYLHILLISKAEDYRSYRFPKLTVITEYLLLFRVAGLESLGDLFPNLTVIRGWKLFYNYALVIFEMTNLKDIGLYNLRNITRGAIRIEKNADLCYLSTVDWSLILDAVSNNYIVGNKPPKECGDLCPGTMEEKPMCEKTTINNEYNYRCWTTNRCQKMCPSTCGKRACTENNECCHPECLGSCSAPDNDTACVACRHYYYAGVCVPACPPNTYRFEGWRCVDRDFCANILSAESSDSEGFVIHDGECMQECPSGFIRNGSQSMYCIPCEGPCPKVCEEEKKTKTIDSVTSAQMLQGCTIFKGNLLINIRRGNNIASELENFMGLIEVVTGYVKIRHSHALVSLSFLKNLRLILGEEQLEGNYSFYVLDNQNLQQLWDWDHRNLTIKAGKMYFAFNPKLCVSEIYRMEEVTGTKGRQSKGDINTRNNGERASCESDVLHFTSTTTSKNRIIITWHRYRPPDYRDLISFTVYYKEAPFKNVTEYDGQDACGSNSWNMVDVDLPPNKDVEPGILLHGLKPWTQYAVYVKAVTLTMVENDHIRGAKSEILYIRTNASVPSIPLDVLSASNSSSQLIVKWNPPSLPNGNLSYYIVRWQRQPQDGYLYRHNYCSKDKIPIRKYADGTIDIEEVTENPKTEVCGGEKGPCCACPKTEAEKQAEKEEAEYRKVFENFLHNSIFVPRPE
# Sequence (P08069 741-1367 limits assumed): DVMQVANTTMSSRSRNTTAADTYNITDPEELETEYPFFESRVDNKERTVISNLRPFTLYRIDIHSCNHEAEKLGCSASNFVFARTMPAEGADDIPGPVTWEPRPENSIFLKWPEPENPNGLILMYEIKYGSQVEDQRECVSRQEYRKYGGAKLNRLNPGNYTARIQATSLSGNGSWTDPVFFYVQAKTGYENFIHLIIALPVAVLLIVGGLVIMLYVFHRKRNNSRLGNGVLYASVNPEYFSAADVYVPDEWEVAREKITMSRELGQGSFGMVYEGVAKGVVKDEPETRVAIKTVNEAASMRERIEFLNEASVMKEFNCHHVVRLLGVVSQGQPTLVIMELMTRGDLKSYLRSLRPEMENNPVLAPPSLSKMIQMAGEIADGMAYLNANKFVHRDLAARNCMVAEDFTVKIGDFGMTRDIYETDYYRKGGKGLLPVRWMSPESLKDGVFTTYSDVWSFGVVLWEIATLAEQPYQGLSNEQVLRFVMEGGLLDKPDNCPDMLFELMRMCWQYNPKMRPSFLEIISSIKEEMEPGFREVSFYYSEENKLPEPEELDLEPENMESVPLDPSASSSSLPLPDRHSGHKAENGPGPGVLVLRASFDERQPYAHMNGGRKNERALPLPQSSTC
# Assay info: Inhibition of IGF-1R
pIC50: −log10 of the molar value.
Measurement type: pIC50

>>> value_measured("CC(=O)NC[C@H]1CC[C@H](c2nc(-c3cc4ccccc4[nH]3)c3c(N)nccn32)CC1")
5.57

---

# Assay info: AUC (0 to infinity) in mouse at 5 mg/kg, iv
# Assay type: ADME, organism-based
# Design: dose 5 mg/kg, route intravenous, time infinity
# Condition parameters: plasma
Measurement type: AUC(0-inf) (ng·h/mL)

>>> value_measured("CN(C)C(=O)N1CCC(c2nc(-c3cc4ccccc4[nH]3)c3c(N)nccn23)CC1")
12100

---

Measured pIC50 by item
# System name: Phosphatidylinositol 4,5-bisphosphate 3-kinase catalytic subunit gamma isoform (Homo sapiens, UniProt P48736)
# Sequence (P48736 whole entry, canonical isoform): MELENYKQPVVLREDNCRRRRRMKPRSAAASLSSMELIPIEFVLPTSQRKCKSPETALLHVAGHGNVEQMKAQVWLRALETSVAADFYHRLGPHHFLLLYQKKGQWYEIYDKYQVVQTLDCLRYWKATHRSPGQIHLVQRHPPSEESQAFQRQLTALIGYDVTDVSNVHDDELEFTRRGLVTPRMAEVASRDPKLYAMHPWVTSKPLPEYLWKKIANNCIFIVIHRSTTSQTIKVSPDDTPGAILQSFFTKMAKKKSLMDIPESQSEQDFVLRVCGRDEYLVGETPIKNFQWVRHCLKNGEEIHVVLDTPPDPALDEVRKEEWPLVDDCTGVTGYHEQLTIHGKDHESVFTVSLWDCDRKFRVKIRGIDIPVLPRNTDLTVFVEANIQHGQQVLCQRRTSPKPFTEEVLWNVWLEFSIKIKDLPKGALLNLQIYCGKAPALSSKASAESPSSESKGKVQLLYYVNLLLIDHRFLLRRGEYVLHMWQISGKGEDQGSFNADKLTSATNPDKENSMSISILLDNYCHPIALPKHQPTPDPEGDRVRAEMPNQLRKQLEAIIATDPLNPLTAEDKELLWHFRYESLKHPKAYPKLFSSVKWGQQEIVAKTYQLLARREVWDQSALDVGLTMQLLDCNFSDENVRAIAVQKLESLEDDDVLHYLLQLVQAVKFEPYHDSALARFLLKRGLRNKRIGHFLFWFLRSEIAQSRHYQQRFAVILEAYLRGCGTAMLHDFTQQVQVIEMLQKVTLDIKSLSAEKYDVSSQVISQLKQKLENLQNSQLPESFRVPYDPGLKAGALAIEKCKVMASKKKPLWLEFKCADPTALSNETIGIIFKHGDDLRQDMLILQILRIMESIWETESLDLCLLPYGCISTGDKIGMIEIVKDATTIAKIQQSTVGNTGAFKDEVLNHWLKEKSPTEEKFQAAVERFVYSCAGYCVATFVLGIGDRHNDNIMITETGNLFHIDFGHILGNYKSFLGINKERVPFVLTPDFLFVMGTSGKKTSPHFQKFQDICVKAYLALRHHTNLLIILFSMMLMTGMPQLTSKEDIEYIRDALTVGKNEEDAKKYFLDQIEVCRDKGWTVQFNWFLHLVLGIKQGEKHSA
# Assay info: Inhibition of PI3Kgamma
pIC50: −log10 of the molar value.
Measurement type: pIC50

>>> value_measured("CN(C)C(=O)N1CCC(c2nc(-c3cc4ccccc4[nH]3)c3c(N)nccn23)CC1")
"< 4.52"
>>> value_measured("CC(=O)NC[C@H]1CC[C@H](c2nc(-c3cc4ccccc4[nH]3)c3c(N)nccn32)CC1")
"< 4.52"

---

# System name: Insulin receptor (Homo sapiens, UniProt P06213)
# Sequence (P06213 28-758 limits assumed): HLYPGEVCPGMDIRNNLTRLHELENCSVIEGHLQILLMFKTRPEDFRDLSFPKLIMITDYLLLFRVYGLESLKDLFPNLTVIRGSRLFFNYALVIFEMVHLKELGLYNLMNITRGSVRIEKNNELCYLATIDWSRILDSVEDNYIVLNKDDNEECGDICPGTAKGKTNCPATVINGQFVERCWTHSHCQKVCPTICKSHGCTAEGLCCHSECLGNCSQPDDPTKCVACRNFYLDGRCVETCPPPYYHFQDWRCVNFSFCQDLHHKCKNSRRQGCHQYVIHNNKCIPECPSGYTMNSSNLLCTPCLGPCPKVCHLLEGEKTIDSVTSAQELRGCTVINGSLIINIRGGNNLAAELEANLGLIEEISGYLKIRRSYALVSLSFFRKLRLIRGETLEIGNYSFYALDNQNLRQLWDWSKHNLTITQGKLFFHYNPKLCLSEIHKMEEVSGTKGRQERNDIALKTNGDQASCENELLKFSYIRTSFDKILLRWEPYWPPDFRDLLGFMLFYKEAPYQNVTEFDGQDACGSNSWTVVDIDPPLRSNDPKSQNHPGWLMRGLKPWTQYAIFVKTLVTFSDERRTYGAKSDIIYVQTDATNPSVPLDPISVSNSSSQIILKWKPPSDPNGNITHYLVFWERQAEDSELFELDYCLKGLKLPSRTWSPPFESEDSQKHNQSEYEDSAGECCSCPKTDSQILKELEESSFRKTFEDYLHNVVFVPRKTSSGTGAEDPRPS
# Sequence (P06213 763-1382 limits assumed): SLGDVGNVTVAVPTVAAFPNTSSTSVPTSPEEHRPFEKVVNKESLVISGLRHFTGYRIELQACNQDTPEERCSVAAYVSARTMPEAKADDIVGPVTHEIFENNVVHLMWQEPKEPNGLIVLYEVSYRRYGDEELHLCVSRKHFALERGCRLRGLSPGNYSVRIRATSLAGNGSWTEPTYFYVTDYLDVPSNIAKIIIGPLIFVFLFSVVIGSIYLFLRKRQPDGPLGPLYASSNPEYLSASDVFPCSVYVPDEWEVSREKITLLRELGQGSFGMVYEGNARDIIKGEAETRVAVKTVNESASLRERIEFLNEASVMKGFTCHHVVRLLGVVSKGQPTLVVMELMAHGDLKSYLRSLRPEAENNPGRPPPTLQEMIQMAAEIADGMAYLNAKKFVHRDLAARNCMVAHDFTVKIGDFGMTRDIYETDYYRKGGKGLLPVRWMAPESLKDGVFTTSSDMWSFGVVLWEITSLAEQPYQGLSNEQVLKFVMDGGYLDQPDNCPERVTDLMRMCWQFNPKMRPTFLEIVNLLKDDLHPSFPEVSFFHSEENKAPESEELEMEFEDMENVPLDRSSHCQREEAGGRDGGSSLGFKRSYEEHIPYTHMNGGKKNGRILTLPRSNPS
Measurement type: IC50

>>> value_measured("CC(=O)NC[C@H]1CC[C@H](c2nc(-c3cc4ccccc4[nH]3)c3c(N)nccn32)CC1")
"22.6 µM"

---

# System name: UniProt:P08069
# Assay info: Inhibition of IGF-1R by ELISA
pIC50: −log10 of the molar value.
Measurement type: pIC50

>>> value_measured("Nc1nccn2c(C3CCC3)nc(-c3ccc4cccnc4c3)c12")
"< 5.00"

---

# Assay info: Bioavailability in mouse at 20 mg/kg, po
# Assay type: ADME, organism-based
# Condition parameters: in vivo
Measurement type: bioavailability (%)

>>> value_measured("CN(C)C(=O)N1CCC(c2nc(-c3cc4ccccc4[nH]3)c3c(N)nccn23)CC1")
102
>>> value_measured("CC(=O)NC[C@H]1CC[C@H](c2nc(-c3cc4ccccc4[nH]3)c3c(N)nccn32)CC1")
54

---

# Assay info: AUC (0 to infinity) in mouse at 20 mg/kg, po
# Assay type: ADME, organism-based
# Design: time infinity, dose 20 mg/kg, route oral
# Condition parameters: plasma
Measured AUC(0-inf) by item
Measurement type: AUC(0-inf)

>>> value_measured("CN(C)C(=O)N1CCC(c2nc(-c3cc4ccccc4[nH]3)c3c(N)nccn23)CC1")
"49400 ng·h/mL"
>>> value_measured("CC(=O)NC[C@H]1CC[C@H](c2nc(-c3cc4ccccc4[nH]3)c3c(N)nccn32)CC1")
"73800 ng·h/mL"

---

# Assay info: in vitro
# Condition parameters: human, liver microsomes
# Description: Metabolic stability in human liver microsome assessed as extraction ratio
Measurement type: hepatic extraction ratio

>>> value_measured("Nc1nccn2c(C3CCNCC3)nc(-c3cc4ccccc4[nH]3)c12")
0.18
>>> value_measured("CN(C)C(=O)N1CCC(c2nc(-c3cc4ccccc4[nH]3)c3c(N)nccn23)CC1")
0.68
>>> value_measured("Nc1nccn2c1c(-c1cc3ccccc3[nH]1)nc2[C@H]1CC[C@H](CNC(=O)C2CCC2)CC1")
0.74
>>> value_measured("CC(=O)N1CCN([C@H]2C[C@@H](c3nc(-c4cc5ccccc5[nH]4)c4c(N)nccn43)C2)CC1")
0.58
>>> value_measured("CC(=O)N1CCC(c2nc(-c3cc4ccccc4[nH]3)c3c(N)nccn23)CC1")
0.44
>>> value_measured("Nc1nccn2c1c(-c1cc3ccccc3[nH]1)nc2[C@H]1CC[C@H](CO)CC1")
0.74
>>> value_measured("Nc1nccn2c1c(-c1cc3ccccc3[nH]1)nc2[C@H]1C[C@@H](O)C1")
0.74
>>> value_measured("Nc1nccn2c1c(-c1cc3ccccc3[nH]1)nc2[C@H]1CC[C@H](CNC(=O)c2ccoc2)CC1")
0.78
>>> value_measured("NC[C@H]1CC[C@H](c2nc(-c3cc4ccccc4[nH]3)c3c(N)nccn32)CC1")
0.34

---

# Assay info: Half life in mouse at 5 mg/kg, iv
# Format: ADME, organism-based
# Set-up: dose 5 mg/kg, route intravenous
# Condition parameters: in vivo
Measurement type: half-life (min)

>>> value_measured("CN(C)C(=O)N1CCC(c2nc(-c3cc4ccccc4[nH]3)c3c(N)nccn23)CC1")
54

---

# Assay info: Volume of distribution at steady-state in mouse at 1 mg/kg, iv
# Format: ADME, organism-based
# Set-up: dose 1 mg/kg, route intravenous
# Condition parameters: in vivo, read-out: Vdss
Measurement type: Vd

>>> value_measured("CC(=O)NC[C@H]1CC[C@H](c2nc(-c3cc4ccccc4[nH]3)c3c(N)nccn32)CC1")
"0.2 L/kg"

---

# Assay info: Permeability of the compound by PAMPA method
# Type: ADME
# Condition parameters: read-out: permeability
Measured Papp by item
Measurement type: Papp

>>> value_measured("CC(=O)NC[C@H]1CC[C@H](c2nc(-c3cc4ccccc4[nH]3)c3c(N)nccn32)CC1")
"> 25 ×10⁻⁶ cm/s"
>>> value_measured("CN(C)C(=O)N1CCC(c2nc(-c3cc4ccccc4[nH]3)c3c(N)nccn23)CC1")
"> 25 ×10⁻⁶ cm/s"

---

Measured IC50 by item
# System name: Proto-oncogene tyrosine-protein kinase Src (Homo sapiens, UniProt P12931)
# Sequence (P12931 2-536 limits assumed): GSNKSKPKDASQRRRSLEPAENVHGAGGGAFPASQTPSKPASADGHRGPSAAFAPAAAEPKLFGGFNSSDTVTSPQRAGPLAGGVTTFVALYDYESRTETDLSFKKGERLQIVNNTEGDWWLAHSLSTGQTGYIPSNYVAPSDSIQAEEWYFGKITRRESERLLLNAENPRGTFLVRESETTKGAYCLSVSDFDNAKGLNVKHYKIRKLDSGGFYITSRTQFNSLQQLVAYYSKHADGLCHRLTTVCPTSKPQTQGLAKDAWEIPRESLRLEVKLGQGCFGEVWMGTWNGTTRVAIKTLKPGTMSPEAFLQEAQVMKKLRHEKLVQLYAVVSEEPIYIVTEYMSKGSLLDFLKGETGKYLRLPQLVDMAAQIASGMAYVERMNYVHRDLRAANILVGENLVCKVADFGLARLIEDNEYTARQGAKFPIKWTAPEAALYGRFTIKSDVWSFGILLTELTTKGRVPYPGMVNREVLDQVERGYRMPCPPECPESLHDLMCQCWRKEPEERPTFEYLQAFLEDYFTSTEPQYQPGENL
Measurement type: IC50 (µM)

>>> value_measured("CN(C)C(=O)N1CCC(c2nc(-c3cc4ccccc4[nH]3)c3c(N)nccn23)CC1")
0.77
>>> value_measured("CC(=O)NC[C@H]1CC[C@H](c2nc(-c3cc4ccccc4[nH]3)c3c(N)nccn32)CC1")
5.3

---

# Assay info: Volume of distribution at steady-state in mouse at 5 mg/kg, iv
# Format: ADME, organism-based
# Design: dose 5 mg/kg, route intravenous
# Condition parameters: in vivo, read-out: Vdss
Measurement type: Vd (L/kg)

>>> value_measured("CN(C)C(=O)N1CCC(c2nc(-c3cc4ccccc4[nH]3)c3c(N)nccn23)CC1")
0.4

---

# Assay info: Clearance in mouse at 1 mg/kg, iv
# Assay type: ADME, organism-based
# Set-up: dose 1 mg/kg, route intravenous
# Condition parameters: in vivo
Measurement type: clearance (mL/min/kg)

>>> value_measured("CC(=O)NC[C@H]1CC[C@H](c2nc(-c3cc4ccccc4[nH]3)c3c(N)nccn32)CC1")
2

---

# Assay info: in vitro
# Condition parameters: human, liver microsomes
Measurement type: hepatic extraction ratio

>>> value_measured("CN1CCN([C@H]2C[C@@H](c3nc(-c4cc5ccccc5[nH]4)c4c(N)nccn43)C2)CC1")
0.44
>>> value_measured("Nc1nccn2c1c(-c1cc3ccccc3[nH]1)nc2[C@H]1C[C@@H](CO)C1")
0.7
>>> value_measured("Nc1nccn2c(C3CCC3)nc(-c3cc4ccccc4[nH]3)c12")
0.92
>>> value_measured("Nc1nccn2c1c(-c1cc3ccccc3[nH]1)nc2[C@H]1CC[C@H](CNC=O)CC1")
0.64

---

# Assay info: Aqueous solubility of the compound at pH 7.4
# Assay type: physicochemical
Measured solubility by item
Measurement type: solubility

>>> value_measured("CN(C)C(=O)N1CCC(c2nc(-c3cc4ccccc4[nH]3)c3c(N)nccn23)CC1")
"> 100 µM"
>>> value_measured("CC(=O)NC[C@H]1CC[C@H](c2nc(-c3cc4ccccc4[nH]3)c3c(N)nccn32)CC1")
"> 100 µM"

---

# Assay info: Cmax in mouse at 20 mg/kg, po
# Type: ADME, organism-based
# Parameters: dose 20 mg/kg, route oral
# Condition parameters: in vivo
Measurement type: Cmax (µM)

>>> value_measured("CC(=O)NC[C@H]1CC[C@H](c2nc(-c3cc4ccccc4[nH]3)c3c(N)nccn32)CC1")
30.6
>>> value_measured("CN(C)C(=O)N1CCC(c2nc(-c3cc4ccccc4[nH]3)c3c(N)nccn23)CC1")
35.9
